# maps each entry to its Ki
# Target Or System: ADC β-lactamase (Acinetobacter baumannii, UniProt Q6DRA1)
# Protocol Description: Ki in direct competition assays with ADC
# Type: biochemical
Measurement Label: Ki

- C[C@@H](O)[C@H]1C(=O)N2C(C(=O)O)=C(S[C@@H]3CN[C@H](C(=O)N(C)C)C3)[C@H](C)[C@H]12 [Meropenem]: 19 µM
- C[C@@H](O)[C@H]1C(=O)N2C(C(=O)O)=C(S[C@@H]3CN[C@H](C(=O)Nc4cccc(C(=O)O)c4)C3)[C@H](C)[C@H]12 [Ertapenem]: 5.8 µM
- C[C@@H](O)[C@H]1C(=O)N2C(C(=O)O)=C(SCCN=CN)C[C@H]12 [Imipenem]: 1.3 µM
- C[C@@H](O)[C@H]1C(=O)N2C(C(=O)O)=C(S[C@@H]3CN[C@H](CNS(N)(=O)=O)C3)[C@H](C)[C@H]12 [Doripenem]: 12.2 µM
